Origin of measurements: PubChem BioAssay (NCI)

Record form. Attribute: growth. Fill in for each entry.
# Tested on: EKVX NSCLC
# Method summary: NCI-60 one-dose screen, 48 h (100 = growth as untreated, 0 = no growth, -100 = all killed)
# Details: 10 µM unless noted
# Method: Growth inhibition of the EKVX human Non-Small Cell Lung tumor cell line is measured as a screen for anti-cancer activity. Cells are grown in 96 well plates and exposed to the test compound for 48 hours. Compounds are tested at a single concentration, which is 10^-5 M for most compounds. The reported endpoint is percent growth (GI% or GIPRCNT), where numbers from 0 - 100% represent growth inhibition, and numbers from -100% - 0 represent cell death. […]
This is part of a sample that, as a whole, favours compounds with a hit. Of some 83,000 tested, about 20% had one in any assay.
Answers are plain numbers, in %.

Please review the following examples before continuing.
COc1cc2c(c(O)c1Br)C(=O)c1c(O)cc(C[C@H](C)O)cc1[C@H]2[C@H]1c2cc(C[C@H](C)O)cc(O)c2C(=O)c2c1cc(OC)c(Br)c2O ... 9.77
COc1cc(CC(=O)n2ncc3ccc(N)cc32)cc(OC)c1OC ... 91.8
O=C1Nc2cc(Cl)ccc2/C1=C\c1c(-c2ccc(F)cc2)nc2ccccn12 ... 34.5
O=C1OC(Cc2ccccc2)C1c1ccccc1 (stereo not given) ... 97.5
COc1cc(C2C3=C(COC3=O)N(CCO)c3cc4c(cc32)CCC4)cc(OC)c1OC (stereo not given) ... 29.6

Give growth for each of the items listed below.
1. O=C(c1nnc(Nc2ccccc2Br)o1)c1c[nH]c2ccccc12
2. CCOc1ccc(Nc2nc(-c3ccc4c(c3)NC(=O)CO4)cs2)cc1
3. COc1cc(/C=C/c2cc(O)c(C(C)=O)c(O)c2)cc2c1O[C@]1(C)CC[C@@H](O)C(C)(C)[C@H]1C2

Result block:
1: 104; 2: 89; 3: 90.7

Give growth for each of the items listed below.
1. COc1cc(NC(=O)CSc2nc3ccc(C)cc3c(=O)n2Cc2ccccc2)cc(OC)c1OC
2. COc1cc2oc(-c3cccc(C(=O)Nc4ccc5c(c4)OCO5)c3)cc(=O)c2c(O)c1OC

Result block:
[84.9, 87]
